# target.or.test.system: human GPR40 (Homo sapiens, UniProt O14842)
# Sequence (O14842 whole entry): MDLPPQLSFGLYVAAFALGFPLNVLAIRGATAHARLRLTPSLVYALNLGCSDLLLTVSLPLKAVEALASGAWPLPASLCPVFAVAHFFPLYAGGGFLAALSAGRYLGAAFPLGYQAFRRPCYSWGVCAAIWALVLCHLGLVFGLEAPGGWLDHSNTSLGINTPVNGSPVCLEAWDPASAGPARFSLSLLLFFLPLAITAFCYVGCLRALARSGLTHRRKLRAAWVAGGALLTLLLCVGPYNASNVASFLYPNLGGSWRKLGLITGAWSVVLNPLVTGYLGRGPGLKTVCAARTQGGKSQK
# assay.text: GPR40 calcium flux assay, human GPR40
# condition.notes: HEK293 cells stably expressing GPR40; table does not say human or rat
Could you please mark yes (1) for values of EC50 below 0.2 µM and no (0) for values at or above it?

- molecule: "Cc1cc(CCC(=O)O)cc(F)c1OCC1=C(c2ccc(F)cc2)CC(F)(F)C1 [Compound 204]"
  target.or.test.system: "human GPR40 (Homo sapiens, UniProt O14842)"
  group.label: "no (0)"
- molecule: "Cc1c(CCC(=O)O)ccc(OCC2=C(c3ccccc3)CCC(F)(F)C2)c1C [Compound 537]"
  target.or.test.system: "human GPR40 (Homo sapiens, UniProt O14842)"
  group.label: "no (0)"
- molecule: "COc1ncc(C2=C(COc3ccc(CCC(=O)O)cc3C)CCC2)cc1F [Compound 222]"
  target.or.test.system: "human GPR40 (Homo sapiens, UniProt O14842)"
  group.label: "no (0)"
- molecule: "Cc1c(CCC(=O)O)ccc(OCC2=C(c3ccc(Cl)cc3)CCCCC2)c1C [Compound 615]"
  target.or.test.system: "human GPR40 (Homo sapiens, UniProt O14842)"
  group.label: "no (0)"
- molecule: "O=C(O)CCc1ccc(OCC2=C(c3ccccc3)CCC2)cc1C(F)(F)F [Compound 258]"
  target.or.test.system: "human GPR40 (Homo sapiens, UniProt O14842)"
  group.label: "no (0)"
- molecule: "Cc1c(CCC(=O)O)ccc(OCC2=C(C3CCCC3)CCC(F)(F)CC2)c1C [Compound 618]"
  target.or.test.system: "human GPR40 (Homo sapiens, UniProt O14842)"
  group.label: "no (0)"
- molecule: "Cc1ncc(C2=C(COc3ccc(CCC(=O)O)c(C)c3C)CC(F)(F)CC2)s1 [Compound 553]"
  target.or.test.system: "human GPR40 (Homo sapiens, UniProt O14842)"
  group.label: "no (0)"
- molecule: "Cc1c(CCC(=O)O)ccc(OCC2=C(c3ccc(Cl)c(F)c3)CCC2)c1C [Compound 157]"
  target.or.test.system: "human GPR40 (Homo sapiens, UniProt O14842)"
  group.label: "no (0)"
- molecule: "CCC(C)C1=C(COc2ccc(CCC(=O)O)c(C(F)(F)F)c2)CCC1 (stereo not drawn) [Compound 388]"
  target.or.test.system: "human GPR40 (Homo sapiens, UniProt O14842)"
  group.label: "yes (1)"
- molecule: "N#Cc1cc(OCC2=C(c3ccc(F)cc3)CCC2)ccc1CCC(=O)O [Compound 237]"
  target.or.test.system: "human GPR40 (Homo sapiens, UniProt O14842)"
  group.label: "no (0)"
- molecule: "Cc1c(CCC(=O)O)ccc(OCC2=C(c3ccc(N(C)C)cc3)CCCC2)c1C [Compound 512]"
  target.or.test.system: "human GPR40 (Homo sapiens, UniProt O14842)"
  group.label: "no (0)"
- molecule: "Cc1cc(OCC2=C(c3ccc(Cl)cc3)CCC2)ccc1CCC(=O)O [Compound 131]"
  target.or.test.system: "human GPR40 (Homo sapiens, UniProt O14842)"
  group.label: "no (0)"
- molecule: "O=C(O)CCc1ccc(OCC2=C(C3=CCCCC3)CCC2)cc1Cl [Compound 355]"
  target.or.test.system: "human GPR40 (Homo sapiens, UniProt O14842)"
  group.label: "no (0)"
- molecule: "Cc1c(CCC(=O)O)ccc(OCC2=C(c3ccc(Cl)cc3)CCC(C(C)C)C2)c1C (stereo not drawn) [Compound 501]"
  target.or.test.system: "human GPR40 (Homo sapiens, UniProt O14842)"
  group.label: "no (0)"
- molecule: "Cc1ccc(C2=C(COc3c(F)cc(CCC(=O)O)cc3F)CC(F)(F)CC2)s1 [Compound 562]"
  target.or.test.system: "human GPR40 (Homo sapiens, UniProt O14842)"
  group.label: "no (0)"
- molecule: "O=C(O)CCc1ccc(OCC2=C(c3ccccc3)CC(F)(F)C2)cc1C(F)(F)F [Compound 241]"
  target.or.test.system: "human GPR40 (Homo sapiens, UniProt O14842)"
  group.label: "no (0)"
- molecule: "Cc1ccc(C2=C(COc3ccc(CCC(=O)O)cc3)CCC2)cc1O [Compound 234]"
  target.or.test.system: "human GPR40 (Homo sapiens, UniProt O14842)"
  group.label: "no (0)"
- molecule: "O=C(O)CCc1ccc(OCC2=C(c3ccc(Cl)c(F)c3)CCC2)cc1Cl [Compound 274]"
  target.or.test.system: "human GPR40 (Homo sapiens, UniProt O14842)"
  group.label: "no (0)"
- molecule: "Cc1cccc(CC2=C(COc3ccc(CCC(=O)O)c(Cl)c3)CCC2)c1 [Compound 406]"
  target.or.test.system: "human GPR40 (Homo sapiens, UniProt O14842)"
  group.label: "yes (1)"
- molecule: "O=C(O)CCc1ccc(OCC2=C(c3ccc(Cl)cc3)CCCC2)c(F)c1F [Compound 513]"
  target.or.test.system: "human GPR40 (Homo sapiens, UniProt O14842)"
  group.label: "no (0)"
- molecule: "O=C(O)CCc1ccc(OCC2=C(c3ccc(F)cc3)CC(F)(F)C2)cc1C(F)(F)F [Compound 188]"
  target.or.test.system: "human GPR40 (Homo sapiens, UniProt O14842)"
  group.label: "yes (1)"
- molecule: "O=C(O)CCc1ccc(OCC2=C(Cc3ccccc3)CCC2)cc1Cl [Compound 329]"
  target.or.test.system: "human GPR40 (Homo sapiens, UniProt O14842)"
  group.label: "yes (1)"
- molecule: "Cc1c(CCC(=O)O)ccc(OCC2=C(c3ccc(F)c(F)c3)CCC2)c1C [Compound 117]"
  target.or.test.system: "human GPR40 (Homo sapiens, UniProt O14842)"
  group.label: "no (0)"
- molecule: "Cc1cc(OCC2=C(c3ccc(Cl)cc3)CCC2)c(F)cc1CCC(=O)O [Compound 289]"
  target.or.test.system: "human GPR40 (Homo sapiens, UniProt O14842)"
  group.label: "no (0)"
- molecule: "O=C(O)CCc1ccc(OCC2=C(Cc3cccc(F)c3)CCC2)cc1C(F)(F)F [Compound 361]"
  target.or.test.system: "human GPR40 (Homo sapiens, UniProt O14842)"
  group.label: "yes (1)"
- molecule: "CC(O)c1cc(OCC2=C(C3CCCC3)CCC2)ccc1CCC(=O)O (stereo not drawn) [Compound 443]"
  target.or.test.system: "human GPR40 (Homo sapiens, UniProt O14842)"
  group.label: "no (0)"
- molecule: "CC(C)c1cc(OCC2=C(c3ccc(Cl)cc3)CCC2)ccc1CCC(=O)O [Compound 167]"
  target.or.test.system: "human GPR40 (Homo sapiens, UniProt O14842)"
  group.label: "no (0)"
- molecule: "Cc1c(CCC(=O)O)ccc(OCC2=C(c3ccccc3Br)CCC2)c1C [Compound 111]"
  target.or.test.system: "human GPR40 (Homo sapiens, UniProt O14842)"
  group.label: "no (0)"
- molecule: "O=C(O)CCc1cc(F)c(OCC2=C(c3ccc(Cl)s3)CCC(F)(F)C2)c(F)c1 [Compound 543]"
  target.or.test.system: "human GPR40 (Homo sapiens, UniProt O14842)"
  group.label: "no (0)"
- molecule: "O=C(O)CCc1ccc(OCC2=C(C3CCCC3)CCC2)c(F)c1C(F)(F)F [Compound 435]"
  target.or.test.system: "human GPR40 (Homo sapiens, UniProt O14842)"
  group.label: "no (0)"

---

Quick list: pEC50 per entry.
# target.or.test.system: Human GPR120 short form (Homo sapiens)
# Construct: expressed in transfected cells
# assay.text: Human GPR120 calcium flux assay, Procedure Calcium B (4200 cells/well)
# Type: cell-based
pEC50: −log10 of the molar value.

- compound: "CC1CCC(COc2ccc(CCC(=O)O)c(Cl)c2)=C1c1ccccc1 (stereo not shown)"
  relation.qualifier: "="
  pEC50: 6.00
- compound: "O=C(O)CCc1ccc(OCC2=C(c3ccc(F)cc3)CC(F)(F)C2)cc1Cl"
  relation.qualifier: "="
  pEC50: 6.52
- compound: "CSc1ccc(C2=C(COc3ccc(CCC(=O)O)c(C)c3C)CCC2)cc1"
  relation.qualifier: "="
  pEC50: 6.74
- compound: "O=C(O)CCc1ccc(OCC2=C(C3CC3)CCC2)cc1C(F)(F)F"
  relation.qualifier: "<"
  pEC50: 5.30

---

# target.or.test.system: Human GPR120 short form (Homo sapiens, UniProt Q5NUL3)
# Construct: expressed in transfected cells
# Sequence (Q5NUL3 whole entry): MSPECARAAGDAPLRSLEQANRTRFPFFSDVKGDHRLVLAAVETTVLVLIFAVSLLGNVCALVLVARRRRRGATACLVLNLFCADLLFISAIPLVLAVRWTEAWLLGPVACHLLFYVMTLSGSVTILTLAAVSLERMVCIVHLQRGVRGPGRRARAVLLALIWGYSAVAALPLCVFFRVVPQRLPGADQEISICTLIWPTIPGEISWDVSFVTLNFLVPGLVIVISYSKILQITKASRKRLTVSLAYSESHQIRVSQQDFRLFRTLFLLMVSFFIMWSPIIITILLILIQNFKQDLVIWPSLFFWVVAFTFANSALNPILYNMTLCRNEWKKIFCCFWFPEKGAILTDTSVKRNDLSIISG
# assay.text: Human GPR120 calcium flux assay, Procedure Calcium B (4200 cells/well)
# Format: cell-based
# Method: Human GPR120 in Calcium Flux Assay These cells are first loaded with the Ca^+2 sensitive dye, Fluo-4 NW. Upon stimulation, intracellular released Ca^+2 can bind to the dye and alter its fluorescence intensity. This increase in fluorescence signal, and thus the flux in intracellular [Ca^2+], is detected and quantitated by fluorescence imaging using a FLIPR reader. The effect of the agonist is measured as a function of concentration and used to calculate an EC50 based upon a response curve. […]
pEC50: −log10 of the molar value.

- compound: "O=C(O)CCc1cc(F)c(OCC2=C(c3ccc(Cl)cc3)CCC2)cc1C(F)(F)F"
  relation.qualifier: "<"
  pEC50: 5.30
- compound: "CCc1ccc(C2=C(COc3ccc(CCC(=O)O)c(C(F)(F)F)c3)CCC2)cc1"
  relation.qualifier: "<"
  pEC50: 5.30
- compound: "Cc1c(CCC(=O)O)ccc(OCC2=C(c3ccc(Cl)cc3)C(C(C)C)CCC2)c1C (stereo not shown)"
  relation.qualifier: "<"
  pEC50: 5.30
- compound: "Cc1ccc(C2=C(COc3ccc(CCC(=O)O)c(C(F)(F)F)c3)CCC2)c(-c2ccccc2)c1"
  relation.qualifier: "<"
  pEC50: 5.30
- compound: "N#Cc1cc(OCC2=C(c3ccc(F)cc3)CC(F)(F)C2)ccc1CCC(=O)O"
  relation.qualifier: "="
  pEC50: 5.68
- compound: "Cc1cccc(C2=C(COc3cc(C)c(CCC(=O)O)cc3F)CCC2)c1"
  relation.qualifier: "="
  pEC50: 6.02
- compound: "Cc1c(CCC(=O)O)ccc(OCC2=C(c3ccc(F)cc3)CCC(F)(F)C2)c1C"
  relation.qualifier: "="
  pEC50: 7.12
- compound: "Cc1ccc(C2=C(COc3ccc(CCC(=O)O)c(C(F)(F)F)c3)CC(F)(F)C2)cc1"
  relation.qualifier: "="
  pEC50: 6.76
- compound: "Cc1cc(CCC(=O)O)ccc1OCC1=C(c2cnn(C)c2)CCC(F)(F)C1"
  relation.qualifier: "="
  pEC50: 6.12
- compound: "O=C(O)CCc1ccc(OCC2=C(C3CCCCC3)CCCC2)cc1Cl"
  relation.qualifier: "="
  pEC50: 5.62
- compound: "O=C(O)CCc1ccc(OCC2=C(c3ccc(F)cc3)CCC(F)(F)C2)cc1C(F)(F)F"
  relation.qualifier: "="
  pEC50: 6.76
- compound: "Cc1c(CCC(=O)O)ccc(OCC2=C(c3ncccn3)CCC2)c1C"
  relation.qualifier: "="
  pEC50: 6.74
- compound: "Cc1c(CCC(=O)O)ccc(OCC2=C(c3ccc(Cl)c(Cl)c3)CCC2)c1C"
  relation.qualifier: "="
  pEC50: 6.69
- compound: "Cc1ccc(F)c(C2=C(COc3ccc(CCC(=O)O)c(C(F)(F)F)c3)CCC2)c1"
  relation.qualifier: "="
  pEC50: 6.35
- compound: "Cc1c(CCC(=O)O)ccc(OCC2=C(c3ccc(F)cc3)CCCC2)c1C"
  relation.qualifier: "="
  pEC50: 7.10
- compound: "Cc1c(CCCC(=O)O)ccc(OCC2=C(c3ccc(Cl)cc3)CCC2)c1C"
  relation.qualifier: "="
  pEC50: 6.18
- compound: "Cc1c(CCC(=O)O)ccc(OCC2=C(c3ccc(Cl)nc3)CCC2)c1C"
  relation.qualifier: "="
  pEC50: 6.88
- compound: "Cc1cc(CCC(=O)O)ccc1OCC1=C(c2ccc(Cl)c(F)c2)CCC1"
  relation.qualifier: "="
  pEC50: 7.59
- compound: "Cc1cc(OCC2=C(c3ccc(Cl)cc3)CCC2)c(Br)cc1CCC(=O)O"
  relation.qualifier: "="
  pEC50: 7.14
- compound: "Cc1cc(OCC2=C(c3cccc(F)c3)CCC2)c(F)cc1CCC(=O)O"
  relation.qualifier: "="
  pEC50: 6.42
- compound: "COC1CCC(c2ccccc2C)=C(COc2ccc(CCC(=O)O)c(C(F)(F)F)c2)C1 (stereo not shown)"
  relation.qualifier: "<"
  pEC50: 5.30
- compound: "Cc1ccc(C2=C(COc3ccc(CCC(=O)O)cc3C)CC(F)(F)CC2)cc1F"
  relation.qualifier: "="
  pEC50: 7.17
- compound: "Cc1c(CCC(=O)O)ccc(OCC2=C(c3ccc(C#N)cc3)CCC2)c1C"
  relation.qualifier: "="
  pEC50: 6.68
- compound: "CC1CCC(COc2ccc(CCC(=O)O)c(C(F)(F)F)c2)=C1c1ccc(Cl)cc1 (stereo not shown)"
  relation.qualifier: "="
  pEC50: 5.61
- compound: "COc1ccc(C2=C(COc3cc(C)c(CCC(=O)O)cc3F)CCC2)cc1"
  relation.qualifier: "="
  pEC50: 6.31
- compound: "Cc1cc(CCC(=O)O)ccc1OCC1=C(c2ccc(Cl)c(F)c2)CCC(F)(F)C1"
  relation.qualifier: "="
  pEC50: 6.05
- compound: "O=C(O)CCc1ccc(OCC2=C(Cc3ccc(Cl)cc3)CCC2)cc1Cl"
  relation.qualifier: "="
  pEC50: 5.60
- compound: "CC(C)C1=C(COc2ccc(CCC(=O)O)c(C(F)(F)F)c2)CCCC1"
  relation.qualifier: "="
  pEC50: 6.04

These data points were gathered from patent US11230526B1.
